Entry source: the EternaBench riboswitch data

Tested on: MS2 coat protein
Assay: apparent Kd, MS2 coat protein; higher = weaker binding; RNA-MaP array; FMN 200 µM where present
Conditions: ligand present: flavin mononucleotide; designed as: OFF switch for flavin mononucleotide
RECORDED ENDPOINT: apparent Kd (µM)
Kindly answer with a numeric value in µM, unit omitted.

These recorded examples may help you get a feel for the data.
{"columns": ["RESIDUE SEQUENCE", "DISPLAY UNIT", "REPORTED VALUE"],
 "data": [
  ["ACAAAGUGAGGAUAUGCUAUUAUACAUUAUUGUUAUUAUUUGCAGAAGGCACAUGAGGAUCACCCAUGUAAGAA", "µM", 0.0226],
  ["GUUGGGUGUCAUGUCGCACAUGAGGAUCACCCAUGUAGGAGGUAGGAUAUCCACGAGAAACAAGCGGAGAAGGGCCAUUAGCGU", "µM", 0.0313],
  ["GUCAGCUCGUGAGGAUAUACAUGUGCUGGAUACAGCACUAUUAUGUUCACAUGAGGAUCACCCAUGUAGAAGGCACGAGCUGAU", "µM", 0.0217]
]}

Req: Write down the reported apparent Kd of UUCGUGUGACAGAAGGGUCUUUCGGGCUGGGAGGCAGGAUAUGUGACAUGAGGAUCACCCAUGUUGGUAUCGUCUGUGUGUACG , test system: MS2 coat protein.
Resp: 0.0128

Req: Write down the reported apparent Kd of UUUAUUUUGCAAGGAUAUGUUUAAUUUUAGUUUCCUUAUACAUGAGGAUCACCCAUGUUAUACUUACAGAAGGUGCAUAAUUUU , test system: MS2 coat protein.
Resp: 0.059

Req: Write down the reported apparent Kd of AAGAAGGACGCAGGAUAUCCAGGACCUCCCGCAGGAGAAGGGCGAAACAUGAGGAUCACCCAUACAUGAGGAUCACCCAUGUAA , test system: MS2 coat protein.
Resp: 0.0363

Req: Write down the reported apparent Kd of UAACAUGUCCGAGGAUAUCUGGAAACAUUUUCAAGAGAAGGCGGACAUGAGGAUCACCCAUGUCUCUCCUCAUCAACUACAAAU , test system: MS2 coat protein.
Resp: 0.0575

Req: Write down the reported apparent Kd of UUCUUACAUGAGGAUCACCCAUGUCAGGAUAUCUCCACACUGCGCUUGCGCAGUGUAUAGAGAAGGGACAGGCU , test system: MS2 coat protein.
Resp: 0.0475

Req: Write down the reported apparent Kd of UUUAUAAAGGUAGGAUAUUGUAUUAUAAUUAAAUAAGAAGGAUCUCACAUGAGGAUCACCCAUGUAAGAGGAUCACCCAUGUAU , test system: MS2 coat protein.
Resp: 0.00925

Req: Write down the reported apparent Kd of CGGGAGUCAGGAUAUACGAACAUGUCGCCAGAUGUCAAGGUACAUGAGGAUCACCCAUGUAGAAGGGAGGAGAA , test system: MS2 coat protein.
Resp: 0.0543

Req: Write down the reported apparent Kd of UGGGCUUUAGGAUAUGCGUGUUGUAGUCGGCGAUGUGGUUCACAUGAGGAUCACCCAUGUAGAAGGAGGGUUUA , test system: MS2 coat protein.
Resp: 0.12

Req: Write down the reported apparent Kd of UAUAUAUAGUAAGGAUAUGUAUUAAUUUUAUUAACAGAAGGUACUGACAUGAGGAUCACCCAUGUUUUAGUGUGGGCAUGUAGA , test system: MS2 coat protein.
Resp: 0.149
